Consider the following compounds; for each one, report its Correction Factor.
Tested on: S. cerevisiae BMA64/luc
assay_setup: 5% ethanol, 10^−10 M; values higher than 2 are considered toxic
Numbers only.

Check out these entries, answers already filled in.
>  <compound>
CC(C)=CCc1c(O)cc(O)c2c1O[C@H](c1ccc(O)cc1)CC2=O [8-PN, 8-prenylnaringenine]

>  <reported_endpoint>
Correction Factor

>  <obs_value>
1.03

$$$$
>  <compound>
O=C([O-])C1=NN(c2ccc(S(=O)(=O)[O-])cc2)C(=O)C1N=Nc1ccc(S(=O)(=O)[O-])cc1.[Na+].[Na+].[Na+] (stereo not shown) [tartrazine]

>  <reported_endpoint>
Correction Factor

>  <obs_value>
1.36

$$$$

Answer for every listed entry: what is its Correction Factor? The entries follow.
1. O=c1c(-c2ccc(O)cc2)coc2cc(O)cc(O)c12 [genistein]
2. CC/C(=C(\c1ccccc1)c1ccc(OCCN(C)C)cc1)c1ccccc1 [tamoxifen]

a:
1.07
1.28

---

Tested on: S. cerevisiae BMA64/luc
assay_setup: 5% DMSO, 10^−6 M; values higher than 2 are considered toxic
reported_endpoint: Correction Factor

>  <compound>
CC(C)=CCc1c(O)cc(O)c2c1O[C@H](c1ccc(O)cc1)CC2=O [8-PN, 8-prenylnaringenine]

>  <Correction Factor>
3.31±0.92

$$$$
>  <compound>
O=C([O-])C1=NN(c2ccc(S(=O)(=O)[O-])cc2)C(=O)C1N=Nc1ccc(S(=O)(=O)[O-])cc1.[Na+].[Na+].[Na+] (centres unmarked) [tartrazine]

>  <Correction Factor>
2.77±0.44

$$$$
>  <compound>
C[C@]12CC[C@@H]3c4ccc(O)cc4CC[C@H]3[C@@H]1CC[C@@H]2O [17β-estradiol]

>  <Correction Factor>
3.42±0.81

$$$$
>  <compound>
O=c1c(-c2ccc(O)cc2)coc2cc(O)cc(O)c12 [genistein]

>  <Correction Factor>
2.59±0.95

$$$$

Could you now consider this next compound?
q: Give a short answer stating reported Correction Factor for CC/C(=C(\c1ccccc1)c1ccc(OCCN(C)C)cc1)c1ccccc1 [tamoxifen] .
a: 2.30±0.14

---

Tested on: S. cerevisiae BMA64/luc
assay_setup: 5% ethanol, 10^−6 M; values higher than 2 are considered toxic
reported_endpoint: Correction Factor
Answers are plain numbers.

>  <compound>
O=c1c(-c2ccc(O)cc2)coc2cc(O)cc(O)c12

>  <system>
S. cerevisiae BMA64/luc

>  <Correction Factor>
1.27

$$$$

Kindly give each listed record's Correction Factor.
1. O=C([O-])C1=NN(c2ccc(S(=O)(=O)[O-])cc2)C(=O)C1N=Nc1ccc(S(=O)(=O)[O-])cc1.[Na+].[Na+].[Na+] (centres unmarked)
2. CC/C(=C(\c1ccccc1)c1ccc(OCCN(C)C)cc1)c1ccccc1
3. CC(C)=CCc1c(O)cc(O)c2c1O[C@H](c1ccc(O)cc1)CC2=O
4. C[C@]12CC[C@@H]3c4ccc(O)cc4CC[C@H]3[C@@H]1CC[C@@H]2O

a:
[0.94, 1.21, 0.94, 1.08]

---

Tested on: S. cerevisiae BMA64/luc
assay_setup: 5% ethanol, 10^−4 M; values higher than 2 are considered toxic
reported_endpoint: Correction Factor
Numbers only.

>  <compound>
O=c1c(-c2ccc(O)cc2)coc2cc(O)cc(O)c12 [genistein]

>  <system>
S. cerevisiae BMA64/luc

>  <obs_value>
1.59

$$$$
>  <compound>
CC/C(=C(\c1ccccc1)c1ccc(OCCN(C)C)cc1)c1ccccc1 [tamoxifen]

>  <system>
S. cerevisiae BMA64/luc

>  <obs_value>
1.35

$$$$

Each compound below has a recorded value; state its Correction Factor.
1. C[C@]12CC[C@@H]3c4ccc(O)cc4CC[C@H]3[C@@H]1CC[C@@H]2O [17β-estradiol]
2. CC(C)=CCc1c(O)cc(O)c2c1O[C@H](c1ccc(O)cc1)CC2=O [8-PN, 8-prenylnaringenine]
3. O=C([O-])C1=NN(c2ccc(S(=O)(=O)[O-])cc2)C(=O)C1N=Nc1ccc(S(=O)(=O)[O-])cc1.[Na+].[Na+].[Na+] (centres unmarked) [tartrazine]

a:
1: 1.12; 2: 1.05; 3: 0.99

The origin of these recorded values is paper PMC8164609.
